List of Avg. IC50, human hemolysis assay (complete human sera) values.
assayed system: human C5 protein (human, UniProt P01031 19-673; P01031 678-1676)
assay comment: cell-based or functional assay
Positions of bridges follow the written chain, without caps; N, C: chain ends. Non-standard residues stand in square brackets, D forms with d. Primed or numbered codes have the meaning given here. mXylyl = bridging moiety between residues (mXylyl(i,j)); Trp(7-aza) = N[C@@H](Cc1c[nH]c2ncccc12)C(=O)O; mXylyl(4) = bridging moiety between residues; Chg = N[C@H](C(=O)O)C1CCCCC1; Phg = N[C@H](C(=O)O)c1ccccc1; NMeS = CN[C@@H](CO)C(=O)O; Nva = CCC[C@H](N)C(=O)O

Take a look at these entries with their results.
binder: Ac-[Nva]C[Phg]TWEY[NMeS]AC[Nva]-NH2 (linker 2-10 via mXylyl(4)) [R3091]
recorded measurement: 483 nM

binder: Ac-[Chg]C[Phg]T[Trp(7-aza)]EY[NMeS]AC[Nva]-NH2 (linker 2-10 via mXylyl(4)) [R3089]
recorded measurement: > 15000 nM

Find the measured Avg. IC50, human hemolysis assay (complete human sera) of Ac-[Nva]CFT[Trp(7-aza)]EY[NMeS]AC[Nva]-NH2 (linker 2-10 via mXylyl(4)) [R3090] and report it. > 100000 nM

Find the measured Avg. IC50, human hemolysis assay (complete human sera) of Ac-[Nva]C[Phg]T[Trp(7-aza)]EY[NMeS]AC[Nva]-NH2 (linker 2-10 via mXylyl) [R3038] and report it. 140 nM

Find the measured Avg. IC50, human hemolysis assay (complete human sera) of Ac-[Nva]C[Phg]TFEY[NMeS]AC[Nva]-NH2 (linker 2-10 via mXylyl(4)) [R3092] and report it. > 50000 nM
